# System: SW-1736
# TEST DESCRIPTION: Cytotoxicity against human SW1736 cells after 96 hrs by SRB assay
# Assay type: functional, cell-based
# CONDITION: SW-1736, 96 h
One threshold, 10 µM, splits the recorded IC50 values: lower ones are true (1), equal or higher ones are false (0).

[
  {
    "COMPOUND": "C=C(C)[C@@H]1CC[C@]2(COC(=O)Nc3ccccc3)CC[C@]3(C)[C@H](CC[C@@H]4[C@@]5(C)CC[C@H](OC(=O)Nc6ccccc6)C(C)(C)[C@@H]5CC[C@]43C)[C@@H]12 [BIS(PHENYLCARBAMATE)BETULIN]",
    "DISCRETE LABEL": "false (0)"
  },
  {
    "COMPOUND": "C=C(C)[C@@H]1CC[C@]2(C(=O)O)CC[C@]3(C)[C@H](CC[C@@H]4[C@@]5(C)CC[C@H](OC(=O)NCC)C(C)(C)[C@@H]5CC[C@]43C)[C@@H]12",
    "DISCRETE LABEL": "true (1)"
  },
  {
    "COMPOUND": "C=C(C)[C@@H]1CC[C@]2(C(=O)OC)CC[C@]3(C)[C@H](CC[C@@H]4[C@@]5(C)CC[C@H](OC(=O)Nc6ccccc6)C(C)(C)[C@@H]5CC[C@]43C)[C@@H]12",
    "DISCRETE LABEL": "false (0)"
  },
  {
    "COMPOUND": "C=C(C)[C@@H]1CC[C@]2(COC(C)=O)CC[C@]3(C)[C@H](CC[C@@H]4[C@@]5(C)CC[C@H](OC(=O)Nc6ccccc6)C(C)(C)[C@@H]5CC[C@]43C)[C@@H]12",
    "DISCRETE LABEL": "false (0)"
  },
  {
    "COMPOUND": "C=C(C)[C@@H]1CC[C@]2(C(=O)O)CC[C@]3(C)[C@H](CC[C@@H]4[C@@]5(C)CC[C@H](OC(=O)Nc6ccccc6)C(C)(C)[C@@H]5CC[C@]43C)[C@@H]12",
    "DISCRETE LABEL": "false (0)"
  },
  {
    "COMPOUND": "C=C(C)[C@@H]1CC[C@]2(COC(=O)NCC)CC[C@]3(C)[C@H](CC[C@@H]4[C@@]5(C)CC[C@H](OC(=O)NCC)C(C)(C)[C@@H]5CC[C@]43C)[C@@H]12 [BIS(ETHYLCARBAMATE)BETULIN]",
    "DISCRETE LABEL": "true (1)"
  }
]

Query: hey, is IC50 for `C=C(C)[C@@H]1CC[C@]2(C(=O)O)CC[C@]3(C)[C@H](CC[C@@H]4[C@@]5(C)CC[C@H](O)C(C)(C)[C@@H]5CC[C@]43C)[C@@H]12` lower than 10 µM or not?
Reply: false (0)

Query: hey, is IC50 for `C=C(C)[C@@H]1CC[C@]2(COC(C)=O)CC[C@]3(C)[C@H](CC[C@@H]4[C@@]5(C)CC[C@H](OC(=O)NCC)C(C)(C)[C@@H]5CC[C@]43C)[C@@H]12` lower than 10 µM or not?
Reply: true (1)

Query: hey, is IC50 for C=C(C)[C@@H]1CC[C@]2(C(=O)OC)CC[C@]3(C)[C@H](CC[C@@H]4[C@@]5(C)CC[C@H](O)C(C)(C)[C@@H]5CC[C@]43C)[C@@H]12 [METHYL BETULINATE] lower than 10 µM or not?
Reply: false (0)

Query: hey, is IC50 for `C=C(C)[C@@H]1CC[C@]2(C(=O)OC)CC[C@]3(C)[C@H](CC[C@@H]4[C@@]5(C)CC[C@H](OC(=O)NCC)C(C)(C)[C@@H]5CC[C@]43C)[C@@H]12` lower than 10 µM or not?
Reply: true (1)

Query: hey, is IC50 for `C=C(C)[C@@H]1CC[C@]2(COC(C)=O)CC[C@]3(C)[C@H](CC[C@@H]4[C@@]5(C)CC[C@H](O)C(C)(C)[C@@H]5CC[C@]43C)[C@@H]12` lower than 10 µM or not?
Reply: false (0)

* * *

# Test system: FaDu
# TEST DESCRIPTION: Cytotoxicity against human FADU cells after 96 hrs by SRB assay
# Type: functional, cell-based
PARAMETER MEASURED: IC50 (µM)
Just the number in µM, nothing appended.

[
  {
    "MOLECULE": "C=C(C)[C@@H]1CC[C@]2(C(=O)OC)CC[C@]3(C)[C@H](CC[C@@H]4[C@@]5(C)CC[C@H](O)C(C)(C)[C@@H]5CC[C@]43C)[C@@H]12 [METHYL BETULINATE]",
    "PARAMETER MEASURED": "IC50",
    "UNITS SYMBOL": "µM",
    "ENDPOINT RESULT": 20.3
  }
]

// next item, IC50 requested
Hey, FaDu data for `C=C(C)[C@@H]1CC[C@]2(COC(C)=O)CC[C@]3(C)[C@H](CC[C@@H]4[C@@]5(C)CC[C@H](O)C(C)(C)[C@@H]5CC[C@]43C)[C@@H]12` : IC50 came out at 14
